tested on: MS2 coat protein; assay: apparent KD of MS2 coat protein; designed switch direction (-1 OFF switch, 1 ON switch): -1; higher = weaker reporter binding; conditions: input ligand: microRNA oligo, concentration not stated
Hi, to clarify the labels: 1 (yes) covers apparent KD of MS2 coat protein from 20 nM upward, 0 (no) covers anything below 20 nM.

Some solved entries appear below for comparison.
CUAGCGAUUGUAGGAUAUCGGACUGUUUCAGUCUGAGAAGGACAUGAGGAUCACCCAUGUGAAGGAUCGUGAGAUCCACGCUAG [JL ENG1 3.79] (Eterna round: R96, puzzle: Exclusion NG 1); 0 (no)
UUAAUUAAUUAAUUAUAAGAUCAACAUGAGGAUCACCCAUGUGAGGAUAUCAGCUCGAUUAGAGCUGAGAAGGCACAAAUAAUU [ExNG3/16-B1] (Eterna round: R96, puzzle: Exclusion NG 3); 1 (yes)
CAUGAUUGGCGAGGAUAUUGAUCUAGUUGGCGACGAGAAGGCGCCUGUCACAUGAGGAUCACCCAUGUGAGUCUGGUGGAUGAG [Ex NG1 #87] (Eterna round: R96, puzzle: Exclusion NG 1); 0 (no)
UCAGUUCUGCAAGGAUAUCGUCCUAGUUUGGUACGAGAAGGUGCUUUUGUUUUUUCCUUGUGUUGACAUGAGGAUCACCCAUGU [JL JR Sub53 mod] (Eterna round: R96, puzzle: Exclusion NG 1); 1 (yes)
AGCUGUGGCCGAGGAUAUCUAUCCAAAAUAACCGAAAUAUAAUCGGACAUGAGGAUCACCCAUGUAGAGAAGGCGGUCUCAGCA [Eli eng2 - 087] (Eterna round: R96, puzzle: Exclusion NG 2); 0 (no)

Please turn your attention to the following entry.
Decide: is the reported value of apparent KD of MS2 coat protein for GCAGCUAACUGUGAUAACAGCACAUGAGGAUCACCCAUGUCUGAGGAUAUGGACUGGAUUACAGUCCAGAAGGCAGAAUGCUGC [Zipper Style 7] (Eterna round: R96, puzzle: Exclusion NG 3) equal to or greater than 20 nM?
0 (no)

----------
apparent KD of MS2 coat protein overview
tested on: MS2 coat protein; assay: apparent KD of MS2 coat protein, switch OFF state (with FMN for OFF switches, without FMN for ON switches); designed switch direction (-1 OFF switch, 1 ON switch): 1; higher = weaker reporter binding; conditions: FMN input: 0 or 200 uM; Eterna round: R93 (includes R88 designs)
Record the value in nM, omitting the unit from your answer.

AAAAACAUGGUGUAGGAUAUAUUAAUAGUCACAUGAGGAUCACCCAUGUUCAUAUAUAUGAACGAGUAGAAGGACGAUGAAAAAA [Mat - Same state - Malcolm Mod - D108]; 237
GAUCCGACUAGUCAGGAUAUCAGGCGUAAGACAUGAGGAUCACCCAUGUCCUAAGAACAAGUAACUGAGAAGGGACAGGGCGACC [JR_SS002_Sub413]; 62.4
AAGAAACAUGAGGAUCACCCAUGUGAGAUAAACACAGGAUAUGCAAAAGAAAGAAAGAAAGCAGAAGGGUGAAGAA [Mat - Same State 1 - Tesla mod - 51]; 129
AACAAUCUAUCUGAGGAUAUGUGUCGAAAGACAUGAGGAUCACCCAUGUGAAAACAUGAAAAGAUACAGAAGGCAGAUAGAUUGA [SS2: 1155]; 35.9
CGAGUACAUGAGGAUCACCCAUGUUAUGAAUUGUCAGGAUAUGGAUAAAGGUGACAUGCGCCAGAAGGGACGUAUG [JR_SS001_Sub1006]; 43.7

Endpoint output: apparent KD of MS2 coat protein of AGAAAACAUGAGGAUCACCCAUGUAGAAAUAUGGGAGGAUAUACAAGGACGAAAGUCAAGGUAGAAGGCCUAAAGA [Mat - Same State 1 - Meechl mod - D127] . Value?
88.4

What apparent KD of MS2 coat protein value was documented for this sequence, AAAAAACAAAGAGAGGAUAUCCUAAAAAAAACAUGAGGAUCACCCAUGUAAAGAAAUUUAAAAUGGGAGAAGGCUCUUUGAAAAA [Same State 2.6d ( Helter Skelter 1)] ?
23.2

Tell me the measured apparent KD of MS2 coat protein of AGAAAACAUGAGGAUCACCCAUGUAGAAAUAUGGGAGGAUAUACAAAGACGAAAGUCGAGGUAGAAGGCCUAAAGA [Mat - Same State 1 - Meechl mod - D122] , please.
103

Fill in the blank: the reported apparent KD of MS2 coat protein of AAAACACAUGAGGAUCACCCAUGUGCAAAAUUCGCAGGAUAUUUCUCAAUUAAAUGAAAGGAAGAAGGGUGAUAAA [Nob's Hobby 34 - Jieux - Same State 1] is ____.
29.4

Name the reported apparent KD of MS2 coat protein value associated with the sequence AAAAAACAUGAGGAUCACCCAUGUAAUACAACGUCAGGAUAUUGAUUUUAUUAUGUAUUGCAAGAAGGGACAAAAA [Same State 1.3 (Same State 1 - Omei 2 - one GC added)]
144

# input sequence: AGAAAUAAAGCUGAGGAUAUGGGAAAAUUCACAUGAGGAUCACCCAUGUAAAAGAAAAUAAAAAACCAGAAGGCAGCAAAUAAGA [Designing denovo 6] ; wanted: its apparent KD of MS2 coat protein
49.8
